# Test system: CAKI-1 renal
# assay.comment: NCI tumour cell line growth inhibition, 48 h
This listing pairs molecules with measured log10 of TGI.
value.kind: log10 of TGI (log10 of the value in µM)

* C=C(CN1CCc2[nH]c3ccc(F)cc3c2C1)c1ccc(C(=O)Nc2ccccc2N)cc1 | 0.77
* ClCCOCCn1cnc2c(Cl)nc(Cl)nc21 | 1.13
* O=[N+]([O-])c1ccc(/C=N/Nc2nc3ccccc3[nH]2)o1 | 1.46
* CC(C)(CN1CCCCC1)C(=O)/C=C/c1ccc(Br)cc1 | 0.57
* O=C(Nc1ccc(OC(F)(F)Cl)cc1)c1cnc(N2CC[C@@H](O)C2)c(-c2ccn[nH]2)c1 | 1.80
* CC(=O)NC1C(O[C@H]2C[C@H]3[C@@H]4CC=C5C[C@@H](O)CC[C@]5(C)[C@H]4CC[C@]3(C)[C@H]2[C@H](C)C(=O)CCC(C)C)OCC(O)C1O (stereo not given in full) | 0.83
* Cc1ccc(S[C@@](C=O)(NC(=O)OCc2ccccc2)C(F)(F)F)cc1 | 1.80
* Cc1ccc(S(=O)(=O)N(CC(O)COc2ccccc2)c2c(F)cccc2F)cc1 (stereo not given) | 1.53

###

# System: SF-295 CNS
# assay.comment: NCI tumour cell line growth inhibition, 48 h
Where a SMILES comes first, the peptide text is derived from it. [ ]: non-standard residue; d: D form. The star is where a group is joined. ξ: configuration not given here. ξF = NC(Cc1ccccc1)C(=O)O; Cbz = O=C(OCc1ccccc1)*
Threshold rule: TGI greater than or equal to 20 µM is YES; below that, NO.

• CSc1nc2nc(-c3ccccc3)c(C)c-2c2n1C(C)C(=O)N2 (stereo not given) = YES
• CCOC(=O)CNC(=O)C(Cc1ccccc1)NC(=O)OCc1ccccc1 (stereo not given) (Cbz-[ξF]-Gly-OEt) = YES
• S=C1Cc2c(-c3ccccc3)cc(-c3cccc(Cl)c3)nc2-c2ccccc2N1 = NO
• COc1ccc(/C=C2\CCC/C(=C\c3ccc(OC)c(OC)c3)C2=O)cc1OC = YES
• Cc1cnc(C(=O)NNc2nc3sc4c(c3c(=O)[nH]2)C(C)CCC4)cn1 (stereo not given) = NO
• CCCCCC(=O)O[C@]1(C(C)=O)CCC2C3CCC4=CC(=O)CC[C@]4(C)C3CC[C@@]21C (stereo not given in full) = NO
• CN1C(=O)CC(=O)N1/C(=C/c1ccccc1)c1ccccc1 = YES
• Cc1noc(NC(=O)Nc2ccccc2F)c1C#N = YES
• NCCOc1cccc(C2(N3CCCCC3)CCCCC2)c1 = YES
• O=C1CC(O)c2cscc21 (stereo not given) = YES
• CCCCCCCCCCCC[C@@H](O)[C@H]1CC[C@H]([C@H](O)CC[C@H](O)[C@@H]2CC[C@@H](CCCCCCCC3=C[C@H](C)OC3=O)O2)O1 = YES
• O=C1c2cc3c(cc2-c2c1c1ccc(Cl)cc1c(=O)n2C[C@H](O)CO)OCO3 = NO
• c1ccc(C(c2ccccc2)c2ccccn2)cc1 = YES
• C[C@@H](CC(=O)OCc1ccccc1)OC1OC(COC(=O)C(C)(C)C)C(OC(=O)C(C)(C)C)C(OC(=O)C(C)(C)C)C1OC(=O)C(C)(C)C (stereo not given in full) = YES
• O=C1C(Cl)N(c2ccccc2Cl)C1c1c[nH]c2ccccc12 (stereo not given) = YES
• COc1ccc2nc3c(c(N)c2c1)C1CCC3C1(C)C (stereo not given) = YES
• CC(=O)NC1C(OCC(=O)NCCNc2ccc([N+](=O)[O-])c3[nH]c4ccccc4c(=O)c23)C(O)C(CO)OC1(C)OCc1ccccc1 (stereo not given) = YES
• Cc1cccc2sc(NC(=O)NS(=O)(=O)n3cnc4ccccc43)nc12 = YES
• Cc1c(C)c2c(c(N)c1C#N)C(=O)N(Cc1ccc(S(N)(=O)=O)cc1)C2=O = YES
• Nc1nc(=S)c2c(ncn2CCO)[nH]1 = YES

###

# Tested on: T-47D breast
# assay.comment: NCI tumour cell line growth inhibition, 48 h
value.kind: TGI (µM)

• C=C1CC[C@@H](CCC2CCC3(OC2)O[C@]2(O)CC[C@@]3(C)OC2(C)C)C(C)(C)[C@H]1C/C=C1\CCOC1=O (stereo not given in full) = 90.3
• COc1cc(C2c3cc4c(cc3OC(NN)C2C)OCO4)cc(OC)c1O (stereo not given) = 31
• Cc1ccc(S[C@@](C=O)(NC(=O)OCc2ccccc2)C(F)(F)F)cc1 = 71
• COc1cc2nc(Cl)nc(NS(=O)(=O)c3cc4ccccc4s3)c2cc1OC = 56.7

###

# Tested on: SK-MEL-28 melanoma
# assay.comment: NCI tumour cell line growth inhibition, 48 h
Measured TGI by item
value.kind: TGI

• COc1ccc2nc(NC(=O)C(=O)CC(=O)c3ccc([N+](=O)[O-])cc3)sc2c1 = > 100 µM
• COc1cc([C@@H]2c3cc4c(cc3[C@@H](Nc3ccc(NC(=O)c5cc([N+](=O)[O-])cn5C)cc3)[C@H]3COC(=O)[C@H]23)OCO4)cc(OC)c1O = > 100 µM
• CCC(c1ccccc1)c1noc(CCN(CC)CC)n1 (stereo not given) = > 73.2 µM
• CCOC(=O)c1cn(CC)c(=O)n2c1nc1ccccc12 = > 100 µM
• CCOC(=O)/C(=C/c1ccccn1)C(=O)c1ccccc1 = 27.3 µM

###

# System: SK-MEL-5 melanoma
# assay.comment: NCI tumour cell line growth inhibition, 48 h
Lab note: compare TGI against 20 µM. Equal or greater, write YES. Smaller, write NO.

• CCSCC1CC(O)(c2ccccc2)C(c2ccccc2)C(c2ccc(F)cc2)O1 (stereo unspecified) = NO
• COc1ccc2nc3c(c(N)c2c1)C1CCC3C1(C)C (stereo unspecified) = YES
• CCOC(=O)C1(C)CCC(C(C(=O)O)C(=O)O)CC1=O (stereo unspecified) = YES
• S=C1Cc2c(-c3ccccc3)cc(-c3cccc(Cl)c3)nc2-c2ccccc2N1 = YES
• CCCC(=O)CC(C)C(=O)C(=O)NC12CC3CC(CC(C3)C1)C2 (stereo unspecified) = YES
• CCOC(=O)/C(=C\c1cccc(C)c1)C(C)=O = YES
• Cc1cccc(Cn2cc(CO)c3cnccc32)c1 = YES
• O=C(c1ccccc1)[C@H]1Nc2ccc(Cl)cc2[C@H]2CCC[C@@H]12 = YES
• Cc1cc(Br)c(NC(=O)c2c(-c3c(Cl)cccc3Cl)noc2C)c(Br)c1 = YES
• O=C1c2cc3c(cc2-c2c1c1ccc(Cl)cc1c(=O)n2C[C@H](O)CO)OCO3 = NO
• O=C(CSCC(=O)N/N=C/c1cccc(O)c1)N/N=C/c1cccc(O)c1 = YES

###

# System: DU-145 prostate
# assay.comment: NCI tumour cell line growth inhibition, 48 h
value.kind: TGI (µM)

- C#Cc1ccc(-n2c(/C=C/c3ccc(O)cc3)nc3ncccc3c2=O)cc1: 76.5
- COc1ccc(C(O)c2cc3c(N)c(C(=O)Nc4cccc5ccccc45)sc3nc2C)cc1 (stereo not given): 3.12
- COc1ccc(/C=C2\CCC/C(=C\c3ccc(OC)c(OC)c3)C2=O)cc1OC: 9.89
- Oc1c(N2CCCCC2)cc(-c2cc(N3CCCCC3)c(O)c3ccccc23)c2ccccc12: 49

###

Quick reference: TGI of the listed items.
# System: HOP-18 NSCLC
# assay.comment: NCI tumour cell line growth inhibition, 48 h
value.kind: TGI

* N#CC1CC(c2ccccc2)Nc2cc(Cl)ccc2N1 (configuration not stated) | > 100 µM
* C=CCNC(=O)C(C)C1CCC2(C)C=CC(=O)C(C)=C2C1O (configuration not stated) | > 100 µM
* CC(C)(CN1CCCCC1)C(=O)/C=C/c1ccc(Br)cc1 | 6.83 µM
* C1CSCCSCCCS[C@@H]2CCCCC2SC1 (some centres not stated) | > 100 µM
* CCc1cccc(CC)c1NC(=O)/C(Cl)=C(/Cl)C(=O)O | 49.5 µM
* CCOC(=O)C1(C)CCC(C(C(=O)O)C(=O)O)CC1=O (configuration not stated) | > 100 µM
* CN1CCOC(C(NC(=O)c2ccccc2)c2ccccc2)C1=O (configuration not stated) | > 100 µM
* CCOC(=O)/C(=C/c1ccccn1)C(=O)c1ccccc1 | 32.7 µM
* NNC(=O)C(=O)NN=C(C(Cl)(Cl)CO)C(Cl)(Cl)CO | > 100 µM
* O=C1N[C@@H]2CCCC[C@@H]2C12CCCCC2 | > 100 µM
* CC1NOC(=O)C1N=Nc1ccc(Cl)cc1Cl (configuration not stated) | 50.4 µM
* NC1=NC(Cn2nc(-c3ccccc3)c3ccccc3c2=O)=NNC(=O)N1 | > 100 µM

###

# Tested on: BT-549 breast
# assay.comment: NCI tumour cell line growth inhibition, 48 h
value.kind: GI50

• OCCCCC#Cc1ccccc1C#Cc1cccc(C(F)(F)F)c1 = 16.4 µM
• CCC(c1ccccc1)c1noc(CCN(CC)CC)n1 (stereo not given) = 39.6 µM
• O=C(O)CN(CCN(CC(=O)O)CC(=O)O)CC(=O)O.[Mn+2] = > 100 µM
• COc1cc(C(=O)/C=C/c2cccc(Nc3ccnc4cc(Cl)ccc34)c2)cc(OC)c1OC = 1.23 µM
• COc1cc([C@@H]2c3cc4c(cc3[C@@H](Nc3ccc(NC(=O)c5cc([N+](=O)[O-])cn5C)cc3)[C@H]3COC(=O)[C@H]23)OCO4)cc(OC)c1O = 0.515 µM
• COCCOC1=C(Cl)C(=O)c2ccccc2C1=O = 3.2 µM
• Cc1cccc(Cn2cc(CO)c3cnccc32)c1 = 35.7 µM
• Cc1cc(Br)c(NC(=O)c2c(-c3c(Cl)cccc3Cl)noc2C)c(Br)c1 = > 100 µM
• COc1ccc(/C=C2\CCC/C(=C\c3ccc(OC)c(OC)c3)C2=O)cc1OC = 1.7 µM
• CN1CCN(c2c(F)cc(NC3=C(Cl)C(=O)c4ncccc4C3=O)cc2F)CC1 = 12.9 µM
• CC(=O)Oc1c(C(=O)[O-])cc(C(C)C)cc1C(C)C.CC(=O)Oc1c(C(=O)[O-])cc(C(C)C)cc1C(C)C.CC(=O)Oc1c(C(=O)[O-])cc(C(C)C)cc1C(C)C.CC(=O)Oc1c(C(=O)[O-])cc(C(C)C)cc1C(C)C.[Cu+2].[Cu+2] = 16.7 µM
• CC(=O)NC1C(O[C@H]2C[C@H]3[C@@H]4CC=C5C[C@@H](O)CC[C@]5(C)[C@H]4CC[C@]3(C)[C@H]2[C@H](C)C(=O)CCC(C)C)OCC(O)C1O (stereo not given in full) = 0.776 µM
• O=C(c1cccs1)c1c(C(F)(F)F)n([O-])c2cc(Cl)c(Cl)cc2[n+]1=O = 0.975 µM
• C(=Nc1nc(SCc2ccccc2)nc2[nH]ncc12)c1cccs1 = 41 µM
• Nc1nc(=S)c2ncn(C3OC(COP(=O)(O)O)C(O)C3O)c2[nH]1 (stereo not given) = 2.38 µM
